Biological target: [NEK7]-[compound of formula (I)]-[CRBN/DDB1] complex (Homo sapiens, UniProt Q8TDX7+Q96SW2)
Test: HTRF ternary complex assay
Type: binding
Conditions: dose-response, 180 min at 25° C.; read-out: HTRF ternary complex Average pEC50 by molecule (converted)
measured_quantity: EC50

>>> observed_value("O=C1CCC(N2Cc3c(csc3C3CCCCO3)C2=O)C(=O)N1 (centres unmarked)")
"> 3160 nM"
>>> observed_value("O=C1CCC(N2Cc3cc(C4CCCCN4)c(F)cc3C2=O)C(=O)N1 (centres unmarked)")
"> 3160 nM"
>>> observed_value("CCCCC1CCC(c2ccc3c(c2)CN(C2CCC(=O)NC2=O)C3=O)OC1 (single isomer, unassigned) [70 Isomer 2]")
"1000 to 3160 nM"
>>> observed_value("O=C1CCC(N2Cc3cc(C4CSCCN4)ccc3C2=O)C(=O)N1 (centres unmarked)")
"100 to 316 nM"
>>> observed_value("O=C1CCC(N2Cc3cc(-c4ccc(-c5ccccc5)cn4)ccc3C2=O)C(=O)N1 (centres unmarked)")
"100 to 316 nM"

Give EC50 for each listed item.
1. COc1ccc(-c2ccc3c(c2)CN(C2CCC(=O)NC2=O)C3=O)nc1 (centres unmarked)
2. CCCCC1CCC(c2ccc3c(c2)CN(C2CCC(=O)NC2=O)C3=O)NC1 (mixture of isomers)
3. O=C1CCC(N2Cc3cc([C@H]4CCCCN4)ccc3C2=O)C(=O)N1 (some centres unmarked)

["100 to 316 nM", "100 to 316 nM", "316 to 1000 nM"]

====

Exercise: state measured activation at 1 µM for each of the compounds provided.
Biological target: [NEK7]-[compound of formula (I)]-[CRBN/DDB1] complex (Homo sapiens, UniProt Q8TDX7+Q96SW2)
Experiment: AlphaLISA dose response ternary complex formation assay
Assay type: binding
Settings: 1 μM compound; normalized to maximum signal of Compound 2 (positive control) and DMSO background; read-out: Normalized AlphaLISA ternary complex average signal at 1 μM molecule

>>> observed_value("O=C1CCC(N2Cc3cc(C4CCC(Cc5ccccc5)CN4)ccc3C2=O)C(=O)N1 (single isomer, unassigned) [35 Isomer 1]")
"> 80%"
>>> observed_value("O=C1CCC(N2Cc3cc(-c4ccc(-c5ccccc5)cn4)ccc3C2=O)C(=O)N1 (stereo not drawn)")
"> 80%"
>>> observed_value("O=C1CCC(N2Cc3cc(C4COCCN4)ccc3C2=O)C(=O)N1 (stereo not drawn)")
"10 to 20%"
>>> observed_value("CN1CCNC(c2ccc3c(c2)CN(C2CCC(=O)NC2=O)C3=O)C1 (stereo not drawn)")
"10 to 20%"
>>> observed_value("CC1c2cc(C3CCCCO3)ccc2C(=O)N1C1CCC(=O)NC1=O (stereo not drawn)")
"> 80%"

Consider the additional compound presented here.
Look at this compound and give its reported activation at 1 µM. Cc1cc2c(cc1C1CCCCN1)CN(C1CCC(=O)NC1=O)C2=O (stereo not drawn) < 10%

====

Target: NEK7 protein (Homo sapiens, UniProt Q8TDX7+Q96SW2)
Sequence (Q8TDX7 whole entry): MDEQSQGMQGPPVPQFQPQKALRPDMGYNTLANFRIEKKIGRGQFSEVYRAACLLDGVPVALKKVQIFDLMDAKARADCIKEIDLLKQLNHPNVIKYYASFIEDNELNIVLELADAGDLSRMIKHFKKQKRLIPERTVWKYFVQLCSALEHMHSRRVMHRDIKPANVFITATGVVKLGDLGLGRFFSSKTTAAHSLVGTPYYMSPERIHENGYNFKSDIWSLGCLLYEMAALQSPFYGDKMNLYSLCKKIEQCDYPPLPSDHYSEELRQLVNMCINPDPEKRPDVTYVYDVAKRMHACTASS
Sequence (Q96SW2 whole entry): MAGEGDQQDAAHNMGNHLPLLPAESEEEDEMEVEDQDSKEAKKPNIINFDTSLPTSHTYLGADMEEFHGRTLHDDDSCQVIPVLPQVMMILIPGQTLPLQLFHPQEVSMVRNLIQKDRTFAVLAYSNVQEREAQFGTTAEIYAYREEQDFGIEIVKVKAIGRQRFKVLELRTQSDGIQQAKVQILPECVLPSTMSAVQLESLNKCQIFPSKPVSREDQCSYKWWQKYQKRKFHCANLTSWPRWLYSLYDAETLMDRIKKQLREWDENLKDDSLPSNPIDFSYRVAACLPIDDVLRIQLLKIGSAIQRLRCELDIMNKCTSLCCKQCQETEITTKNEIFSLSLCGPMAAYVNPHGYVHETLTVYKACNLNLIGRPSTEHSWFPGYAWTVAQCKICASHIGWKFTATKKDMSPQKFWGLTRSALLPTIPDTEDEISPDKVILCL
Sequence (Q16531 whole entry partner): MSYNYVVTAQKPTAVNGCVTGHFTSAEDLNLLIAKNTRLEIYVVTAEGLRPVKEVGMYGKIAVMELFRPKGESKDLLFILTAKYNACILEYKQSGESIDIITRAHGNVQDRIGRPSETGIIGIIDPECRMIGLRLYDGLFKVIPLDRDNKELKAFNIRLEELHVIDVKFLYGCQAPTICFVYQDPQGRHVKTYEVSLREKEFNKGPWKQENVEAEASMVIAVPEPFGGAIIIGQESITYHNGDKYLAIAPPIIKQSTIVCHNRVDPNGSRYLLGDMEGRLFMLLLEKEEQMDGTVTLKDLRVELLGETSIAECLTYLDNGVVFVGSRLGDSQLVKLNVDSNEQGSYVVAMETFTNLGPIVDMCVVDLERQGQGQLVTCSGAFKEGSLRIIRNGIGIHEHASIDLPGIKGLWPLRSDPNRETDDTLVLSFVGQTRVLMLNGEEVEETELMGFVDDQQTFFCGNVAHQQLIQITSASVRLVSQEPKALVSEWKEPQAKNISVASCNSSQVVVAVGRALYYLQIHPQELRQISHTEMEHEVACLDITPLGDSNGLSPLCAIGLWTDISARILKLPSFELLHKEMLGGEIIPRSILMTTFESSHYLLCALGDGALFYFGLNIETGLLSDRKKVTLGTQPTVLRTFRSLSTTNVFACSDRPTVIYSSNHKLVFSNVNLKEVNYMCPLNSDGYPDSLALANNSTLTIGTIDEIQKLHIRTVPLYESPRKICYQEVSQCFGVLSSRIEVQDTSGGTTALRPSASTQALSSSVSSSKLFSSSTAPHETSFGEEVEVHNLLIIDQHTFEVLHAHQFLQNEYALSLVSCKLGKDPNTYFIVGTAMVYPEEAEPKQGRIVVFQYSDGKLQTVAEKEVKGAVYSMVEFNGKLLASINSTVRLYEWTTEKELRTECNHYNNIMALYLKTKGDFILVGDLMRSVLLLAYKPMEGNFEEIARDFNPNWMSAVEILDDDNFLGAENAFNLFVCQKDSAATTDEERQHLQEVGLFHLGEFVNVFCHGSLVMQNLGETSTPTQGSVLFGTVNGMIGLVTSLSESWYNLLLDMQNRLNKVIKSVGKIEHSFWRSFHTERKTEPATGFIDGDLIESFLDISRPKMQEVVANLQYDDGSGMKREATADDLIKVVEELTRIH
Assay: NEK7 protein degradation determined by Western blot in human PBMC-derived macrophages
Format: cell-based
Settings: 10 μM, 24 h, densitometric values normalized to loading control, read-out: Amount of NEK7 protein (% of DMSO control)
measured_quantity: remaining NEK7 protein amount at 10 µM

As a guide, the following entries are already answered.
>>> observed_value("CC1c2cc(C3CCCCN3)ccc2C(=O)N1C1CCC(=O)NC1=O (stereo not shown)")
"≤ 10%"
>>> observed_value("CC1c2cc(C3CCCCO3)ccc2C(=O)N1C1CCC(=O)NC1=O (stereo not shown)")
"≤ 10%"
>>> observed_value("O=C1CCC(N2Cc3cc(C4CCCCN4)c(F)cc3C2=O)C(=O)N1 (stereo not shown)")
"40 to 75%"
>>> observed_value("Cc1c(C2CCCCN2)ccc2c1CN(C1CCC(=O)NC1=O)C2=O (stereo not shown)")
"40 to 75%"
>>> observed_value("O=C1CCC(N2Cc3cc(C4CCCCN4)ccc3C2=O)C(=O)N1 (stereo not shown)")
"10 to 40%"
>>> observed_value("O=C1CCC(N2Cc3cc(-c4ccc(-c5ccccc5)cn4)ccc3C2=O)C(=O)N1 (stereo not shown)")
"40 to 75%"

Look at this compound and give its reported remaining NEK7 protein amount at 10 µM. O=C1CCC(N2Cc3cc(-c4ccccn4)ccc3C2=O)C(=O)N1 (stereo not shown) 40 to 75%
